Ref: paper PMC12431793

Target: T1, Tp0751_(99–237) (Treponema pallidum subsp. pallidum, …, UniProt O83732)
T1 construct: Tp0751 of Treponema pallidum, amino acids 99-237 (N-terminal truncation; alpha helix cap 99-114 and lipocalin domain 115-237)
T1 sequence (O83732 99-237): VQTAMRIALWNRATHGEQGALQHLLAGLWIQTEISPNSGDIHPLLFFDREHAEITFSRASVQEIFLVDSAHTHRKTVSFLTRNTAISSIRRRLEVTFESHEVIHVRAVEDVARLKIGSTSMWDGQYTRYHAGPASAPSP
Assay: ELISA; epitope mapping: 33pM of antibody on plate-coated Tp0751_(24–237), Tp0751_(99–237) or Tp0751_(115–237)
Conditions: both partners purified

Binder	binding result
2092E3 (antibody, V domains shown, made as rabbit IgG; source: produced and purified as rabbit IgG by Sino Biological) VH: QSVEESGGRLVTPGTPLTLTCTVSGIDLSSYAMSWVRQAPGKGLEWIGVIGDMDIVSYATWAKGRFTISKTSTTVDLKITSPTTADTATYFCAGDGGYSDYDHAPNIWGPGTLVTVSL VL: DVVMTQTPASVEAAVGGTVTIKCHASESIYDYLAWYQQKPGQPPKLLISKASTLASGVPSGFKASGSGTLFTLTISDLECADAATYYCQWSFYDHYYVGAFGGGTEVVVK	binds
2101B3 (antibody, V domains shown, made as rabbit IgG; source: produced and purified as rabbit IgG by Sino Biological) VH: QSLEESGGDLVKPGASLTLTCTASGLDFSGYYYICWVRQAPGKGLEWIGCIWPGDGDTDYASWAKGRFTVSKTSSTTVDLKVTTLTAADTATYFCGRLLGSGSAYFNLWGPGTLVTVSS VL: AVVMTQTPSSVSEAVGGTVTIKCQASQTIGEALAWYQQKPGQPPKLLIYKASTVASGVPWRFKGSGCGSEYTLTISGVQCEDAATYYCQQGYSLTIIDNLFGGGTEVVVE	binds
